# protocol: amyloid nucleation score (Sup35N fusion, yeast selection) (log enrichment); library NNK2; higher = more nucleation; inactive = no reads after selection;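 also: zero at mode of non-aggregating sequences after 7 days selection at 30°C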
measure_name: amyloid nucleation score

Req: Consider the substance shown here: `AMFTSSMIRTLGCCSGSQTA` What is its recorded amyloid nucleation score?
Resp: 4.14

Req: Name the reported amyloid nucleation score value associated with the substance `HFWCLRCDTIHDSFNYSVVQ`
Resp: 7.37

Req: Need amyloid nucleation score, item `WLIKKASRYSN`
Resp: -0.608

Req: What value of amyloid nucleation score has been recorded for this entry: `GTSMCRELNVHNAWRGIHMG`
Resp: 0.615

Req: I am curious: what amyloid nucleation score value has been reported for `EPDELPYLLKASLMSLGHGP` ?
Resp: 4.64
